Origin of the recorded values: paper PMC10460844

test system: rat erythrocytes; assay: Hemolysis assay; type: cell-based; details: red cells of rat
Counter-ions that a name gives are not always drawn. Square brackets hold non-standard residues; d marks the D form. Peptide text beside a SMILES is read from it. Gly(N(CH2)2(3-indolyl)) = O=C(O)CNCCc1c[nH]c2ccccc12; Nspe = C[C@H](NCC(=O)O)c1ccccc1; Nlys = NCCCCNCC(=O)O
Collected HC50 values appear next to each entry.
Note: unit µM is implicit; provide only the numeric part.

{"molecule": "C[C@@H](c1ccccc1)N(CC(=O)N(CCCCN)CC(=O)N(CC(=O)N(CC(=O)N(CCCCN)CC(=O)N(CC(=O)N(CC(=O)N(CCCCN)CC(N)=O)[C@@H](C)c1ccccc1)[C@@H](C)c1ccccc1)[C@@H](C)c1ccccc1)[C@@H](C)c1ccccc1)C(=O)CN(C(=O)CN(CCCCN)C(=O)CN(CCc1c[nH]c2ccccc12)C(=O)CNCCc1c[nH]c2ccccc12)[C@@H](C)c1ccccc1 [37-HCl] (H-[Gly(N(CH2)2(3-indolyl))][Gly(N(CH2)2(3-indolyl))][Nlys][Nspe][Nspe][Nlys][Nspe][Nspe][Nlys][Nspe][Nspe][Nlys]-NH2)", "measured.property": "HC50", "value.measured": 56.5}
{"molecule": "C[C@@H](c1ccccc1)N(CC(=O)N(CCCCN)CC(=O)N(CC(=O)N(CC(=O)N(CCCCN)CC(=O)N(CC(=O)N(CC(=O)N(CCCCN)CC(=O)N(CCc1c[nH]c2ccccc12)CC(=O)N(CCc1c[nH]c2ccccc12)CC(N)=O)[C@@H](C)c1ccccc1)[C@@H](C)c1ccccc1)[C@@H](C)c1ccccc1)[C@@H](C)c1ccccc1)C(=O)CN(C(=O)CNCCCCN)[C@@H](C)c1ccccc1 [peptoid 11] (H-[Nlys][Nspe][Nspe][Nlys][Nspe][Nspe][Nlys][Nspe][Nspe][Nlys][Gly(N(CH2)2(3-indolyl))][Gly(N(CH2)2(3-indolyl))]-NH2)", "measured.property": "HC50", "value.measured": 27.5}
{"molecule": "C[C@@H](c1ccccc1)N(CC(N)=O)C(=O)CN(C(=O)CN(CCCCN)C(=O)CN(C(=O)CN(CCc1c[nH]c2ccccc12)C(=O)CN(CCCCN)C(=O)CN(CCc1c[nH]c2ccccc12)C(=O)CN(C(=O)CN(CCCCN)C(=O)CN(C(=O)CN(C(=O)CNCCCCN)[C@@H](C)c1ccccc1)[C@@H](C)c1ccccc1)[C@@H](C)c1ccccc1)[C@@H](C)c1ccccc1)[C@@H](C)c1ccccc1 [peptoid 15]", "measured.property": "HC50", "value.measured": 89.2}

Per the record, C[C@@H](c1ccccc1)N(CC(N)=O)C(=O)CN(C(=O)CN(CCCCN)C(=O)CN(C(=O)CN(C(=O)CN(CCCCN)C(=O)CN(C(=O)CN(C(=O)CN(CCCCN)C(=O)CN(CCc1c[nH]c2ccccc12)C(=O)CN(C(=O)CNCCCCN)[C@@H](C)c1ccccc1)[C@@H](C)c1ccccc1)[C@@H](C)c1ccccc1)[C@@H](C)c1ccccc1)[C@@H](C)c1ccccc1)[C@@H](C)c1ccccc1 [10-AcOH] has HC50 of 29.4

Per the record, C[C@@H](c1ccccc1)N(CC(N)=O)C(=O)CN(C(=O)CN(CCCCN)C(=O)CN(C(=O)CN(C(=O)CN(CCCCN)C(=O)CN(C(=O)CN(C(=O)CN(CCCCN)C(=O)CN(CCc1c[nH]c2ccccc12)C(=O)CN(CCc1c[nH]c2ccccc12)C(=O)CNCCCCN)[C@@H](C)c1ccccc1)[C@@H](C)c1ccccc1)[C@@H](C)c1ccccc1)[C@@H](C)c1ccccc1)[C@@H](C)c1ccccc1 [14-HCl] has HC50 of 68.2

Per the record, C[C@@H](c1ccccc1)N(CC(=O)N(CCCCN)CC(=O)N(CC(=O)N(CC(=O)N(CCCCN)CC(=O)N(CC(=O)N(CC(=O)N(CCCCN)CC(=O)N(CCc1c[nH]c2ccccc12)CC(=O)N(CCc1c[nH]c2ccccc12)CC(N)=O)[C@@H](C)c1ccccc1)[C@@H](C)c1ccccc1)[C@@H](C)c1ccccc1)[C@@H](C)c1ccccc1)C(=O)CN(C(=O)CNCCCCN)[C@@H](C)c1ccccc1 [11-AcOH] (H-[Nlys][Nspe][Nspe][Nlys][Nspe][Nspe][Nlys][Nspe][Nspe][Nlys][Gly(N(CH2)2(3-indolyl))][Gly(N(CH2)2(3-indolyl))]-NH2) has HC50 of 29.7

====

Experiment: Analytical reversed-phase HPLC elution (hydrophobicity)
Assay type: physicochemical
Conditions: Table 1; analytical RP-HPLC, SunFire C18 […] 250 mm, water/ACN + 0.1% TFA, 5% B 2 min then linear to 100% B over 30 min, 1 mL/min, UV 220 nm; used as measure of hydrophobicity
Procedure: 7. HPLC chromatogram, retention time (tR), and LC-MS data HPLC analysis of peptoids was conducted using a Waters HPLC system equipped with a Waters 2489 UV/Visible Detector, 1525 Binary HPLC Pump, 2707 Autosampler, 5CH column oven, and a C18 column (SunFire C18, 4.6 × 250 mm, 5 μm; Waters Corp., Milford, MA, USA). The mobile phases were deionized water (A, with + 0.1% TFA) and acetonitrile (ACN; B, with + 0.1% TFA). […] The sample was detected by measuring absorbance at 220 nm. […]
Square brackets hold non-standard residues; d marks the D form. Peptide text beside a SMILES is read from it. Gly(N(CH2)2(3-indolyl)) = O=C(O)CNCCc1c[nH]c2ccccc12; Nspe = C[C@H](NCC(=O)O)c1ccccc1; Nlys = NCCCCNCC(=O)O
measured.property: HPLC elution (%ACN)
Answer format: value, then unit.

{"compound": "C[C@@H](c1ccccc1)N(CC(N)=O)C(=O)CN(C(=O)CN(CCCCN)C(=O)CN(C(=O)CN(C(=O)CN(CCCCN)C(=O)CN(C(=O)CN(C(=O)CN(CCCCN)C(=O)CN(CCc1c[nH]c2ccccc12)C(=O)CN(C(=O)CNCCCCN)[C@@H](C)c1ccccc1)[C@@H](C)c1ccccc1)[C@@H](C)c1ccccc1)[C@@H](C)c1ccccc1)[C@@H](C)c1ccccc1)[C@@H](C)c1ccccc1 [peptoid 10]", "value.measured": "54.9 %ACN"}

Now take the following compound into account.
Per the record, C[C@@H](c1ccccc1)N(CC(=O)N(CCCCN)CC(=O)N(CCc1c[nH]c2ccccc12)CC(=O)N(CCc1c[nH]c2ccccc12)CC(N)=O)C(=O)CN(CCCCN)C(=O)CN(CCCCN)C(=O)CN(C(=O)CN(C(=O)CN(CCCCN)C(=O)CN(C(=O)CN(C(=O)CNCCCCN)[C@@H](C)c1ccccc1)[C@@H](C)c1ccccc1)[C@@H](C)c1ccccc1)[C@@H](C)c1ccccc1 [peptoid 29] (H-[Nlys][Nspe][Nspe][Nlys][Nspe][Nspe][Nlys][Nlys][Nspe][Nlys][Gly(N(CH2)2(3-indolyl))][Gly(N(CH2)2(3-indolyl))]-NH2) has HPLC elution (%ACN) of 48.6 %ACN

====

test system: rat erythrocytes; experiment: Hemolysis assay; assay type: cell-based
Where a name gives a salt, the structure may show the parent alone. Square brackets hold non-standard residues; d marks the D form. Peptide text beside a SMILES is read from it. Gly(N(CH2)2(3-indolyl)) = O=C(O)CNCCc1c[nH]c2ccccc12; Nspe = C[C@H](NCC(=O)O)c1ccccc1; Nphe = O=C(O)CNCc1ccccc1; Nlys = NCCCCNCC(=O)O
measured.property: Hmax (100 µM) (%)
Note: unit % is implicit; provide only the numeric part.

# count of solved cases: 2
{"compound": "C[C@@H](c1ccccc1)N(CC(=O)N(CCCCN)CC(=O)N(CCCCN)CC(=O)N(CCc1c[nH]c2ccccc12)CC(=O)N(CCc1c[nH]c2ccccc12)CC(N)=O)C(=O)CN(CCCCN)C(=O)CN(C(=O)CN(C(=O)CN(CCCCN)C(=O)CN(C(=O)CN(C(=O)CNCCCCN)[C@@H](C)c1ccccc1)[C@@H](C)c1ccccc1)[C@@H](C)c1ccccc1)[C@@H](C)c1ccccc1 [peptoid 28] (H-[Nlys][Nspe][Nspe][Nlys][Nspe][Nspe][Nlys][Nspe][Nlys][Nlys][Gly(N(CH2)2(3-indolyl))][Gly(N(CH2)2(3-indolyl))]-NH2)", "measured.property": "Hmax (100 µM)", "value.measured": 8.9}
{"compound": "C[C@@H](c1ccccc1)N(CC(=O)N(CCCCN)CC(=O)N(CCCCN)CC(=O)N(CC(=O)N(CC(=O)N(CCCCN)CC(=O)N(CC(=O)N(CC(=O)N(CCCCN)CC(N)=O)[C@@H](C)c1ccccc1)[C@@H](C)c1ccccc1)[C@@H](C)c1ccccc1)[C@@H](C)c1ccccc1)C(=O)CN(CCCCN)C(=O)CN(CCc1c[nH]c2ccccc12)C(=O)CNCCc1c[nH]c2ccccc12 [peptoid 38] (H-[Gly(N(CH2)2(3-indolyl))][Gly(N(CH2)2(3-indolyl))][Nlys][Nspe][Nlys][Nlys][Nspe][Nspe][Nlys][Nspe][Nspe][Nlys]-NH2)", "measured.property": "Hmax (100 µM)", "value.measured": 5.9}

Per the record, C[C@@H](c1ccccc1)N(CC(=O)N(CCCCN)CC(=O)N(CCc1c[nH]c2ccccc12)CC(=O)N(CCc1c[nH]c2ccccc12)CC(N)=O)C(=O)CN(CCCCN)C(=O)CN(CCCCN)C(=O)CN(C(=O)CN(C(=O)CN(CCCCN)C(=O)CN(Cc1ccccc1)C(=O)CN(Cc1ccccc1)C(=O)CNCCCCN)[C@@H](C)c1ccccc1)[C@@H](C)c1ccccc1 [peptoid 41] (H-[Nlys][Nphe][Nphe][Nlys][Nspe][Nspe][Nlys][Nlys][Nspe][Nlys][Gly(N(CH2)2(3-indolyl))][Gly(N(CH2)2(3-indolyl))]-NH2) has Hmax (100 µM) of 7.1

Per the record, C[C@@H](c1ccccc1)N(CC(=O)N(CCCCN)CC(=O)N(CC(=O)N(CC(=O)N(CCCCN)CC(=O)N(CC(=O)N(CC(=O)N(CCCCN)CC(N)=O)[C@@H](C)c1ccccc1)[C@@H](C)c1ccccc1)[C@@H](C)c1ccccc1)[C@@H](C)c1ccccc1)C(=O)CN(C(=O)CN(CCCCN)C(=O)CN(CCc1c[nH]c2ccccc12)C(=O)CNCCc1c[nH]c2ccccc12)[C@@H](C)c1ccccc1 [37-HCl] (H-[Gly(N(CH2)2(3-indolyl))][Gly(N(CH2)2(3-indolyl))][Nlys][Nspe][Nspe][Nlys][Nspe][Nspe][Nlys][Nspe][Nspe][Nlys]-NH2) has Hmax (100 µM) of 86.6
